B1: DLC1 (parent)
chain: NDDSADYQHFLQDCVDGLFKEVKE

Variants of: B1
test-name: protein stability index of a GFP-peptide fusion (GPS, HEK-293T) (PSI 1-6); higher = more stable;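 note: lentivirally expressed fusions sorted by FACS into six bins by GFP to DsRed ratio, PSI derived from sequencing read proportions per bin multiplied by bin number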
condition-details: c terminus: a fixed tail appended
# protein stability index per entry
Reply: number alone, nothing else.

Solved cases (10 shown):
INSERT INTO measurements (variant_designation, number) VALUES
  ('C14I', 2.41),
  ('E24C', 2.33),
  ('Q12K', 2.33),
  ('Y7T', 3.31),
  ('V22Q', 4.37),
  ('Q8C', 1.69),
  ('Y7Q', 4.52),
  ('V22A', 4.42),
  ('E21C', 2),
  ('L11K', 5.08);

Kindly review the next variant as well.
Given the entry H9R , report its measured protein stability index.
2.86
